Assay: Selectivity index, ratio of CC50 for human Huh7.5 cells to EC50 for genotype 2a HCV JFH-1 infected in human Huh7.5 cells
Format: toxicity, cell-based
READOUT_LABEL: selectivity ratio
API doc: respond with a numeric literal and nothing else, no unit.

O=C(NC1CCCCC1)C(c1ccc([N+](=O)[O-])cc1)N(C(=O)Cc1c[nH]c2ccccc12)c1ccc(Br)cc1 (centres undefined)	2.2

Q. Any idea what selectivity ratio was measured for COc1ccc(N(C(=O)Cc2c[nH]c3ccccc23)C(C(=O)NC2CCCCC2)c2ccc([N+](=O)[O-])cc2)cc1 (centres undefined) ?
A. 3.4

Q. Any idea what selectivity ratio was measured for COc1ccc(N(C(=O)Cc2c[nH]c3ccccc23)C(C(=O)NC2CCCCC2)c2ccc([N+](=O)[O-])cc2)cc1OC (centres undefined) ?
A. 18

Q. Any idea what selectivity ratio was measured for COc1cccc(CCN(C(=O)c2cc3ccccc3[nH]2)C(C(=O)NC2CCCCC2)c2ccc([N+](=O)[O-])cc2)c1 (centres undefined) ?
A. 1.9

Q. Any idea what selectivity ratio was measured for O=C(NC1CCCCC1)C(c1ccc([N+](=O)[O-])cc1)N(C(=O)Cc1c[nH]c2ccccc12)c1ccccc1 (centres undefined) ?
A. 2

----------
Listing: CC50 at 72 h of selected compounds
Test: Cytotoxicity against human Huh7.5 cells assessed as decrease in cell viability after 3 days by MTT assay
Format: cell-based
Conditions: time 3 day
Report as a plain number; the unit µM is understood.

# annotated cases, reported CC50 at 72 h shown
COc1ccc(N(C(=O)Cc2c[nH]c3ccccc23)C(C(=O)NC2CCCCC2)c2ccc([N+](=O)[O-])cc2)cc1 (centres undefined)	8.5
O=C(NC1CCCCC1)C(c1ccc([N+](=O)[O-])cc1)N(C(=O)Cc1c[nH]c2ccccc12)c1ccccc1 (centres undefined)	11.9
COc1cccc(CCN(C(=O)c2cc3ccccc3[nH]2)C(C(=O)NC2CCCCC2)c2ccc([N+](=O)[O-])cc2)c1 (centres undefined)	43.1

Let us examine a further case.
Q. Any idea what CC50 at 72 h was measured for COc1ccc(CN(C(=O)Cc2c[nH]c3ccccc23)C(C(=O)NC2CCCCC2)c2ccc([N+](=O)[O-])cc2)cc1 (centres undefined) ?
A. 56.3

----------
Assay: Selectivity index, ratio of CC50 for human Huh7.5 cells to EC50 for genotype 2a HCV JFH-1 infected in human Huh7.5 cells
Type: toxicity, cell-based
Listing: selectivity ratio of selected compounds

# annotated cases, reported selectivity ratio shown
COc1ccc(CCN(C(=O)Cc2c[nH]c3ccccc23)C(C(=O)NC2CCCCC2)c2ccc([N+](=O)[O-])cc2)cc1OC (centres undefined)	> 23.8
COc1ccc(CCN(C(=O)c2cc3ccccc3[nH]2)C(C(=O)NC2CCCCC2)c2ccc([N+](=O)[O-])cc2)cc1OC (centres undefined)	> 3.1
COc1ccc(N(C(=O)c2cc3ccccc3[nH]2)C(C(=O)NC2CCCCC2)c2ccc([N+](=O)[O-])cc2)cc1OC (centres undefined)	> 24.5

Let us examine a further case.
Q. Any idea what selectivity ratio was measured for NC(=O)c1ncn([C@@H]2O[C@H](CO)[C@@H](O)[C@H]2O)n1 [RIBAVIRIN] ?
A. > 6.1
